measuredOn: T1, AtRCD1-RST(499–572) (Arabidopsis thaliana, UniProt Q8RY59 499-572)
T1 construct: RST domain of Radical-Induced Cell Death1 (RCD1), Arabidopsis thaliana, residues 499-572; also called AtRST(499–572); Arabidopsis RST domain
T1 sequence (looked up): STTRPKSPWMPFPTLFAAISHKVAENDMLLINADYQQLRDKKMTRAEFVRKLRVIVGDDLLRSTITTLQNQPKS
experimentNotes: ITC; RST domain in the syringe (100–300 µM) titrated into the TF fragment in the cell (10–30 µM); 25 °C; 50 mM Hepes, pH 7.4, 100 mM NaCl; one set of sites model
conditionSet: both partners purified
quantityKind: pKd
By convention, pKd is the negative base-10 log of a molar concentration.

The recorded pKd for entry WPNDVDQSHLDSSDMFDVDEILRDLNGDD (peptide, UniProt O82132 244-272, looked up, DREB2A, Arabidopsis thaliana, AT5G05410, residues 244-272 with Leu264 to Ile; source: mutation by QuikChange) [AtDREB2A(244–272;L264I)] equals 7.41

The recorded pKd for entry NLEEDMYLEINDIMEPEPEPT (peptide, UniProt F4IED2 254-274, looked up, ANAC013, Arabidopsis thaliana, AT1G32870, residues 254-274 with Leu266 to Ile; Probably made from the ANAC013(254–274) plasmid of previous work and purified in the same way; also called AtANAC013(254–274;L266I)) [ANAC013(254–274;L266I)] equals 6.65

The recorded pKd for entry WPNDVDQSHLDSSDMFDVDELLRDLNGDD (peptide, UniProt O82132 244-272, looked up) [AtDREB2A(244–272)] equals 7.80
